The measurements presented in this section are drawn from paper PMC9838217.

Assign binding signal to each entry below.
- Assay System: SALL4 ZFC4 R900W (HT-SELEX) (Mus musculus, UniProt Q8BX22 870-940, R900W)
- Sequence: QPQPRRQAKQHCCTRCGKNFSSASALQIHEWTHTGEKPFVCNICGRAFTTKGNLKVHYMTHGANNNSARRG
- Method Summary: HT-SELEX; high values mean tight binding
- Test Conditions: protein: recombinant; vector His6-GST; dsDNA, one strand shown
Field format: number, assumed fold-change vs cycle 0, no unit text.

I am curious: what binding signal value has been reported for `AAGCCT` ? 0.72

Give the measured binding signal of `ACTTAA` . 2.12

Recorded binding signal for `AACCAT` , please? 1.42

I'd like to know its binding signal. The sequence in question is `CACGAG` 0.496

Please report the recorded binding signal for `CCATAG` . 0.91

Given `GACCTA` , state its recorded binding signal. 0.857

Quick one: binding signal for `AGCAAC` ? 0.736

Please report the recorded binding signal for `GACCTC` . 0.51

Tell me the measured binding signal of `CACAAG` , please. 0.853

Fill in the blank: the reported binding signal of `ATCCTC` is ____. 1.06

Returns the measured binding signal for the input sequence. Input: `GGACTA` 0.855

* * *

- Assay System: SALL4 ZFC4 R900W (HT-SELEX) (Mus musculus, UniProt Q8BX22 870-940, R900W)
- Sequence: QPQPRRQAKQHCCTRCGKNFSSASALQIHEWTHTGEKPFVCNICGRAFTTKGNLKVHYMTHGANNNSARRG
- Method Summary: HT-SELEX; high values mean tight binding
- Test Conditions: protein: recombinant; vector His6-GST; dsDNA, one strand shown
Assign class by binding signal: not lower than 0.8 fold-change vs cycle 0 means met; lower than 0.8 fold-change vs cycle 0 means not met.

Hello, I need to know if `CAGCTA` has measured binding signal not below 0.8 fold-change vs cycle 0. Thanks! not met

Threshold query (binding signal >= 0.8 fold-change vs cycle 0) on `AGTAGA` met

Given `GCGAAC` , state whether its binding signal is at least 0.8 fold-change vs cycle 0. not met

Say whether `AAGAGT` shows binding signal of 0.8 fold-change vs cycle 0 or more. met

Hi, just wondering whether `GAACGC` shows binding signal of 0.8 fold-change vs cycle 0 or higher. not met

Given `AACCCA` , state whether its binding signal is at least 0.8 fold-change vs cycle 0. met

Quick check: does `CTGCTA` have binding signal greater than or equal to 0.8 fold-change vs cycle 0? not met

Is binding signal at least 0.8 fold-change vs cycle 0? Consider `CGGTAG` not met

API: above_or_equal(metric=binding signal, cutoff=0.8 fold-change vs cycle 0) for item `AGCCTG` not met

Is the recorded value of binding signal equal to or greater than 0.8 fold-change vs cycle 0 for this sequence? `CTCTAA` met

Determine whether measured binding signal meets or exceeds 0.8 fold-change vs cycle 0 for `ATCCCA` met

Dear colleague, could you confirm whether `GGCGTA` has binding signal at or above 0.8 fold-change vs cycle 0? not met

Assess whether reported binding signal for `GAAGGC` sits at 0.8 fold-change vs cycle 0 or higher. not met

Hi team, for `ATTTAC` , is the recorded binding signal at or above 0.8 fold-change vs cycle 0? met

Threshold query (binding signal >= 0.8 fold-change vs cycle 0) on `CTGGTA` met

Evaluate `CACAGG` : binding signal at minimum 0.8 fold-change vs cycle 0? not met

Say whether `GCTTCA` shows binding signal of 0.8 fold-change vs cycle 0 or more. not met

Is it the case that `CCCAGA` has binding signal reaching or exceeding 0.8 fold-change vs cycle 0? not met

Does `AATCTG` have a reported binding signal of at least 0.8 fold-change vs cycle 0? met

Is binding signal for `ATAGTC` at or above 0.8 fold-change vs cycle 0? met

Has `AGCCAC` a recorded binding signal greater than or equal to 0.8 fold-change vs cycle 0? not met

Exam item: decide whether the reported binding signal for `AACGGT` is at least 0.8 fold-change vs cycle 0. not met

Please indicate if the recorded binding signal for `GTTCCA` meets or exceeds 0.8 fold-change vs cycle 0. met

Form field: binding signal at least 0.8 fold-change vs cycle 0? Entry: `ATGTTC` met

For this sequence, is measured binding signal 0.8 fold-change vs cycle 0 or higher? `AGGCTA` not met

Check if binding signal >= 0.8 fold-change vs cycle 0 (inclusive). Item: `GTACAA` met

Quick check: does `TAACCA` have binding signal greater than or equal to 0.8 fold-change vs cycle 0? met

Can `AACAAG` be said to have binding signal at or above 0.8 fold-change vs cycle 0? met

Does the reported binding signal for `CTGACA` fall at or above the 0.8 fold-change vs cycle 0 mark? met

Say whether `ATTTTC` shows binding signal of 0.8 fold-change vs cycle 0 or more. met

Item `AATACT` with binding signal of 0.8 fold-change vs cycle 0 or above? met

Quick check: does `TACATA` have binding signal greater than or equal to 0.8 fold-change vs cycle 0? met

Check if binding signal >= 0.8 fold-change vs cycle 0 (inclusive). Item: `AATCTC` met

Answer whether binding signal of `GCGTGA` is greater than or equal to 0.8 fold-change vs cycle 0. not met

Does the sequence `TAGCGA` have recorded binding signal that is 0.8 fold-change vs cycle 0 or more? not met

Does `CTAGGA` have a reported binding signal of at least 0.8 fold-change vs cycle 0? met

Identify whether the reported binding signal of the following sequence is 0.8 fold-change vs cycle 0 or greater: `GATACC` met

Check the entry `CACGGC` : does binding signal equal or exceed 0.8 fold-change vs cycle 0? not met

Reported binding signal reaches at least 0.8 fold-change vs cycle 0 for `CAAGTA` ? met

Please tell me: is the sequence `CGTAAG` at or over 0.8 fold-change vs cycle 0 in terms of binding signal? met

Can `ATTCGG` be said to have binding signal at or above 0.8 fold-change vs cycle 0? not met

Has `AAGCGA` a recorded binding signal greater than or equal to 0.8 fold-change vs cycle 0? not met

Can `AAAATT` be said to have binding signal at or above 0.8 fold-change vs cycle 0? met

Record `ATCACG` ; criterion: binding signal no lower than 0.8 fold-change vs cycle 0. Met? met

Does the sequence `GAGCAC` have recorded binding signal that is 0.8 fold-change vs cycle 0 or more? not met

Does `AATTCC` have a reported binding signal of at least 0.8 fold-change vs cycle 0? met

Item `ATTCAA` with binding signal of 0.8 fold-change vs cycle 0 or above? met

# check: binding signal of `CGCTTC` is greater than or equal to 0.8 fold-change vs cycle 0 not met

For this sequence, is measured binding signal 0.8 fold-change vs cycle 0 or higher? `GTCTTA` met

Determine whether this sequence has binding signal no lower than 0.8 fold-change vs cycle 0: `CCGGAC` not met

Does `CCAGGA` have a reported binding signal of at least 0.8 fold-change vs cycle 0? not met

API: above_or_equal(metric=binding signal, cutoff=0.8 fold-change vs cycle 0) for item `CCGGTA` not met

Dear colleague, could you confirm whether `AGCTGG` has binding signal at or above 0.8 fold-change vs cycle 0? not met

Threshold query (binding signal >= 0.8 fold-change vs cycle 0) on `CAATGC` not met

Has `AGCTTA` a recorded binding signal greater than or equal to 0.8 fold-change vs cycle 0? met

# bool: binding signal of `ACTGGG` >= 0.8 fold-change vs cycle 0 not met

Is binding signal for `GGATAC` at or above 0.8 fold-change vs cycle 0? met

Given `AGTCTA` , state whether its binding signal is at least 0.8 fold-change vs cycle 0. met

Entry `ATAGGA` : is its binding signal no less than 0.8 fold-change vs cycle 0? met

Determine whether measured binding signal meets or exceeds 0.8 fold-change vs cycle 0 for `CTTACC` met

Reported binding signal at or above 0.8 fold-change vs cycle 0? `AATGAT` met

Would you say `CATGAG` shows binding signal at minimum 0.8 fold-change vs cycle 0? met

Is binding signal at least 0.8 fold-change vs cycle 0? Consider `ACGGGA` not met

Dear colleague, could you confirm whether `GGATTA` has binding signal at or above 0.8 fold-change vs cycle 0? met

Determine whether measured binding signal meets or exceeds 0.8 fold-change vs cycle 0 for `GGGGAA` not met

In plain terms: is recorded binding signal at least 0.8 fold-change vs cycle 0 for `AATGTG` ? met

Please tell me: is the sequence `GCACGC` at or over 0.8 fold-change vs cycle 0 in terms of binding signal? not met

Dear colleague, could you confirm whether `AGTACG` has binding signal at or above 0.8 fold-change vs cycle 0? met

Entry `AGGTCG` : is its binding signal no less than 0.8 fold-change vs cycle 0? not met

Threshold query (binding signal >= 0.8 fold-change vs cycle 0) on `GCGAGA` not met

Kindly determine if binding signal recorded for `GGAACA` is above or exactly 0.8 fold-change vs cycle 0. met

Has `CCCGTC` a recorded binding signal greater than or equal to 0.8 fold-change vs cycle 0? not met

binding signal >= 0.8 fold-change vs cycle 0 for `CGGCAC` ? not met

Is it the case that `AACCTG` has binding signal reaching or exceeding 0.8 fold-change vs cycle 0? met

Reported binding signal reaches at least 0.8 fold-change vs cycle 0 for `ACAGCG` ? not met

Hi, just wondering whether `CATCGG` shows binding signal of 0.8 fold-change vs cycle 0 or higher. not met

Exam item: decide whether the reported binding signal for `ACAAAT` is at least 0.8 fold-change vs cycle 0. met

# bool: binding signal of `CGTTAA` >= 0.8 fold-change vs cycle 0 met

Hi team, for `CCTAGA` , is the recorded binding signal at or above 0.8 fold-change vs cycle 0? met

Determine whether this sequence has binding signal no lower than 0.8 fold-change vs cycle 0: `TACGGA` met

Tell me whether binding signal is at least 0.8 fold-change vs cycle 0 here: `CTCGCA` not met

Please indicate if the recorded binding signal for `CCTCCG` meets or exceeds 0.8 fold-change vs cycle 0. not met

Given the entry `ACTTCC` , answer whether its binding signal meets or surpasses 0.8 fold-change vs cycle 0. met

Check the entry `ATGGCC` : does binding signal equal or exceed 0.8 fold-change vs cycle 0? not met

Could you verify whether the entry `TGGACA` shows binding signal of no less than 0.8 fold-change vs cycle 0? not met

Tell me whether binding signal is at least 0.8 fold-change vs cycle 0 here: `CTAAAG` met

Hello, I need to know if `AAGCTA` has measured binding signal not below 0.8 fold-change vs cycle 0. Thanks! met

Does the sequence `AGAAAC` have recorded binding signal that is 0.8 fold-change vs cycle 0 or more? met
